test: Evaluation of conversion rate to active form in buffer solution (Experimental Example 1); type: physicochemical; details: pH7.4, 0 hr, 37° C., 25 umol/L in buffer solution
observed.property: Production rate of Alvocidib (%)

compound=CCCN(C[C@H]1CCCCN1)C(=O)Oc1cc(O)c2c(=O)cc(-c3ccccc3Cl)oc2c1[C@H]1CCN(C)C[C@H]1O measurement_unit=% reported_result=0.9
compound="CN1CC[C@H](c2c(OC(=O)N(CCCC(F)(F)F)CC3CCCCN3)cc(O)c3c(=O)cc(-c4ccccc4Cl)oc23)[C@H](O)C1 (stereo partly shown)" measurement_unit=% reported_result=35.9
compound=CCN(C[C@H]1CCCCN1)C(=O)Oc1cc(O)c2c(=O)cc(-c3ccccc3Cl)oc2c1[C@H]1CCN(C)C[C@H]1O measurement_unit=% reported_result=0.2
compound=CN1CC[C@H](c2c(OC(=O)N(C)C[C@@H]3CCCCN3)cc(O)c3c(=O)cc(-c4ccccc4Cl)oc23)[C@H](O)C1 measurement_unit=% reported_result=0.9
compound="CCN(CCC1CCCCN1)C(=O)Oc1cc(O)c2c(=O)cc(-c3ccccc3Cl)oc2c1[C@H]1CCN(C)C[C@H]1O (stereo partly shown)" measurement_unit=% reported_result=0.9
compound="CCNC(=O)Oc1cc(O)c2c(=O)cc(-c3ccccc3Cl)oc2c1[C@H]1CCN(C)C[C@H]1O [Comparative Example 1, reference compound]" measurement_unit=% reported_result=40.2
compound="CN1CC[C@H](c2c(OC(=O)N(C)CC3CCCCN3)cc(O)c3c(=O)cc(-c4ccccc4Cl)oc23)[C@H](O)C1 (stereo partly shown)" measurement_unit=% reported_result=9.7

====

assay: Evaluation of conversion rate to active form in buffer solution (Experimental Example 1); assay type: physicochemical; details: pH7.0, 1 hr, 37° C., 25 umol/L in buffer solution
Where a name gives a salt, the structure may show the parent alone.
observed.property: Residual rate (%)

compound="CCCN(CC1CCCCN1)C(=O)Oc1cc(O)c2c(=O)cc(-c3ccccc3Cl)oc2c1[C@H]1CCN(C)C[C@H]1O (stereo partly shown)" observed_property="Residual rate" measurement_unit=% reported_result=55.1
compound="CCN(CC1CCCCN1)C(=O)Oc1cc(O)c2c(=O)cc(-c3ccccc3Cl)oc2c1[C@H]1CCN(C)C[C@H]1O (stereo partly shown) [Example 7, dihydrochloride]" observed_property="Residual rate" measurement_unit=% reported_result=62.0
compound=CCCN(C[C@@H]1CCCCN1)C(=O)Oc1cc(O)c2c(=O)cc(-c3ccccc3Cl)oc2c1[C@H]1CCN(C)C[C@H]1O observed_property="Residual rate" measurement_unit=% reported_result=55.0
compound=CN1CC[C@H](c2c(OC(=O)N(C)C[C@H]3CCCCN3)cc(O)c3c(=O)cc(-c4ccccc4Cl)oc23)[C@H](O)C1 observed_property="Residual rate" measurement_unit=% reported_result=27.7

====

# Production rate of Alvocidib per record follows
Experiment: Evaluation of conversion rate to active form in buffer solution (Experimental Example 1)
Assay type: physicochemical
Conditions: pH7.4, 3 hr
Experimental: For Examples 1 to 16 and Comparative Examples 1 to 14, the attrition rate of the test compound and the conversion rate of the test compound to Alvocidib in a buffer solution were calculated by the following method. Examples 1 to 16 and Comparative Examples 1 to 14 were each left in buffer solutions adjusted to pH 5.0, 5.5, 6.0, 6.5, 7.0 and 7.4, respectively, at a concentration of 25 umol/L at 37° C. […]
observed.property: Production rate of Alvocidib (%)

compound="CN1CC[C@H](c2c(O)cc(O)c3c(=O)cc(-c4ccccc4Cl)oc23)[C@H](OC(=O)CN)C1 [Comparative Example 8, reference compound]" measurement_unit=% reported_result=81.4
compound="CC(C)[C@H](N)C(=O)O[C@@H]1CN(C)CC[C@@H]1c1c(O)cc(O)c2c(=O)cc(-c3ccccc3Cl)oc12 [Comparative Example 10, reference compound]" measurement_unit=% reported_result=17.1
compound="CCOC(=O)O[C@@H]1CN(C)CC[C@@H]1c1c(O)cc(O)c2c(=O)cc(-c3ccccc3Cl)oc12 [Comparative Example 3, reference compound]" measurement_unit=% reported_result=1.3
compound="C[C@H](N)C(=O)O[C@@H]1CN(C)CC[C@@H]1c1c(O)cc(O)c2c(=O)cc(-c3ccccc3Cl)oc12 [Comparative Example 7, reference compound]" measurement_unit=% reported_result=94.4
